Tested on: XF 498 CNS
test.name: NCI tumour cell line growth inhibition, 48 h
Each entry below carries its reported TGI.

Some molecules with known TGI results, for comparison:
CCN(CC)CCO[Si](OCCN(CC)CC)(OCCN(CC)CC)OCCN(CC)CC = > 100 µM
O=C1CCC(=O)c2sccc2N1 = > 100 µM
O=C(/C=C/C1C(=O)NC(=O)NC1=O)CC(=O)C(=O)Nc1cc(Cl)c(Cl)cc1Cl = > 100 µM
CC(C)(C)Sc1nnc(SC(C)(C)C)c2c(=O)[nH]nc(SC(C)(C)C)c12 = 28.7 µM
CN1CN(C(=O)N2CN(C)C(=O)N(C)C2)CN(C)C1=O = > 100 µM
COC(=O)/C(=N\Nc1nnc(C)n1N)C(C#N)c1ccccc1 (stereo not drawn) = > 100 µM
Cn1nc(-c2ccccc2)c(C(=O)/C=C/c2ccc(Cl)cc2)c(N2CCCC2)c1=O = 28.3 µM
CCCCNC1=C(C(=O)OCC)/C(=N/NC(=O)c2ccccc2O)CO1 = > 100 µM

Reported TGI for O=c1[nH]cc(C(F)(C(F)(F)F)C(F)(F)F)c(=O)[nH]1 was > 100 µM

Reported TGI for CC(=O)c1c2c(cc3c1CC1(C3)Cc3cc4c(c(C(=O)O)c3C1)CCC4)CCC2 (stereo not drawn) was > 100 µM

Reported TGI for CN/N=C(\C(=O)Nc1ccc(C)c(C)c1)C(C(=O)OC)c1nc2ccc([N+](=O)[O-])cc2[nH]c1=O (stereo not drawn) was > 100 µM

Reported TGI for CN(C)CN(C)c1nc(N(C)C)nc(N(C)CN(C)C)n1 was > 100 µM

Reported TGI for CC(/C=N/N=C(N)N)=N\N=C(N)N was 12 µM

----------
Tested on: COLO 205 colon
test.name: NCI tumour cell line growth inhibition, 48 h
Each entry below carries its reported log10 TGI.
All values: log10 TGI [µM].

Some compounds with known log10 TGI results, for comparison:
COC(=O)c1ccc(NCC2=C(Br)C(=O)C=CC2=O)cc1Cl = 1.50
COc1cccc(NC2=C(Cl)C(=O)N(Cc3ccc(Cl)cc3)C2=O)c1 = 1.60
Cn1nc(-c2ccccc2)c(C(=O)/C=C/c2ccc(Cl)cc2)c(N2CCCC2)c1=O = 0.61
CCCCC[C@H]1CCCCCCCCCC(=O)OC2C(O[C@@H]3OC(C)[C@H](OC(=O)[C@@H](C)CC)C(O[C@@H]4OC(C)[C@H](O)C(O)[C@@H]4O)[C@@H]3OC(=O)[C@H](C)CC)[C@H](OC3C(O)[C@@H](O)C(C)O[C@H]3O1)OC(CO)[C@H]2O (some centres not stated) = 1.40
Cc1c(Cl)c(C)c(Cc2c(C)c(Cl)c(C)c(Cl)c2O)c(O)c1Cl = 0.97
O=S(=O)(O)SCCNCCCCCC1CCCCC1 = 1.48
CN(C)CN(C)c1nc(N(C)C)nc(N(C)CN(C)C)n1 = 1.79
Cc1cc(Nc2nc(-c3ccncc3)nc3ccccc23)n[nH]1 = 0.81

Reported log10 TGI for O=[N+]([O-])/C(C(Cl)=C(Cl)Cl)=C(/Nc1ccccc1)Sc1ccccc1 was 1.54

Reported log10 TGI for COC(=O)c1cc(/C=C\c2cc(OC)ccc2OC)ccc1OC was 1.78

Reported log10 TGI for COc1ccc2c(c1)CCC/C2=N\NS(=O)(=O)c1c(C)cc(C)cc1C was 1.76

Reported log10 TGI for CC(=O)Nc1ccc(-c2nnc(SCC(=O)Nc3ccc(Cl)cc3)o2)cc1 was 1.54

Reported log10 TGI for CC1(C)CC(=O)C2=C(C1)OC1(CC2c2ccc(Cl)cc2)CC(c2ccc(Cl)cc2)C2=C(CC(C)(C)CC2=O)O1 (configuration not stated) was 1.56
